tested_target: Heat shock protein HSP 90-alpha (Homo sapiens, UniProt P07900)
Type: functional, organism-based
The source made the active and inactive calls.
AC50: recorded values

Some solved entries appear below for comparison.
Cc1cccc(/C=C/C(=O)c2ccc([N+](=O)[O-])o2)c1: 2.39 µM (active)
O=C1C(Cl)=C(NCCc2ccccc2)C(=O)c2ccccc21: 3.38 µM (active)
Cn1nnnc1N=N/C(=N/Nc1ccccc1)c1ccccc1: 3.55 µM (active)

Note: attention shifts to another entry.
The observed AC50 for Cc1ccc(C(C[N+](=O)[O-])c2c(N)n(C)c(=O)n(C)c2=O)cc1 (centres undefined) when tested with Heat shock protein HSP 90-alpha (Homo sapiens, UniProt P07900) stands at 2.5 µM (active)

* * *

tested_target: Endoribonuclease toxin MazF (Escherichia coli K-12)
Sequence (P0AE70 whole entry): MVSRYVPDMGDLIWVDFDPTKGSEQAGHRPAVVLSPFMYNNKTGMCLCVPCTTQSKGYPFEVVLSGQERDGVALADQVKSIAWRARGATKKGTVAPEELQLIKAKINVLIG
experiment: substrate-only fluorescence increase artefacts – biochemical, single-stranded RNase substrate, counter-screen for MazEF activator project, dose response (AID 588502)
Type: functional
The source made the active and inactive calls.
EC50: recorded values

Some solved entries appear below for comparison.
N#Cc1cc2ccccc2nc1SCC(=O)Nc1ccccc1N1CCOCC1: > 99 µM (inactive)
COc1cc(C(=O)Oc2cc(N)n(S(=O)(=O)c3ccc(F)cc3)n2)cc(OC)c1OC: > 99 µM (inactive)
CC(=O)c1sc2nc(-c3cccs3)cc(C(F)(F)F)c2c1N: 22.3 µM (inactive)
CCOC(=O)[C@H]1[C@H]2COc3ccccc3[C@@H]2N2C(=O)CN(Cc3ccc(C)cc3)C(=O)[C@@]12C: > 99 µM (inactive)
CCCCN1CC(=O)N2[C@@H]3c4cc(Br)ccc4OC[C@@H]3[C@H](C(=O)OCC)[C@]2(C)C1=O: 39.6 µM (inactive)

Note: attention shifts to another entry.
Lab book: EC50 of O=C1/C(=C/Nc2ccccc2O)c2ccccc2C(=O)N1c1nccs1 noted as > 99 µM (inactive)

* * *

tested_target: UniProt Q96RJ0
Sequence (Q96RJ0 whole entry): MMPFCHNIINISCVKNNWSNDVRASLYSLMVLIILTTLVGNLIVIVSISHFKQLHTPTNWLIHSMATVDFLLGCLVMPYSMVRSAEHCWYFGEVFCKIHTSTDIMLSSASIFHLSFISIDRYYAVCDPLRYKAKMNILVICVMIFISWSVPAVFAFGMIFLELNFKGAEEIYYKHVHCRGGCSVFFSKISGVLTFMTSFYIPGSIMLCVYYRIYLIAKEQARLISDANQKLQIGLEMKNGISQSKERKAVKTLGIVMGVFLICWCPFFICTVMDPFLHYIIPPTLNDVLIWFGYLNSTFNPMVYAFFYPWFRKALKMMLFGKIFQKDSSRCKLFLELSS
experiment: Counterscreen for agonists of the human trace amine associated receptor 1 (hTAAR1): Fluorescence-based cell-based high throughput dose response assay to identify hTAAR1 agonist that also desensitize TAAR1 receptor response.
Type: functional
Counter-ions that a name gives are not always drawn. Activity calls are given as the source filed them.
IC50: recorded values

Some solved entries appear below for comparison.
CN1CCN(c2ccc(NC(=O)c3cccc(OCc4ccccc4)c3)cc2)CC1: 9.06 µM (active)
COc1ccccc1CCn1cnc(-c2ccc(Cl)cc2)c1CC(C)C: 6.55 µM (active)
N=C(N)SCc1ccccc1Cl: 5.21 µM (active)

The observed IC50 for c1ccc2c(CC3=NCCN3)cccc2c1 [NAPHAZOLINE HYDROCHLORIDE] when tested with UniProt Q96RJ0 stands at 1.15 µM (active)

* * *

System: BJ
experiment: cells
Assay type: functional, cell-based
protocol_conditions: Homo sapiens
The source made the active and inactive calls.
measurement_label: EC50

Some solved entries appear below for comparison.
Cc1cccc(/C=C/C(=O)c2ccc([N+](=O)[O-])o2)c1: > 150 µM (inconclusive)
COc1ccc(C(=O)/C(C#N)=N/Nc2ccccc2[N+](=O)[O-])cc1: 19.4 µM (inconclusive)
Cc1cc(N2CCCCC2)nc(NCc2ccccc2)n1: 21.4 µM (active)

Note: attention shifts to another entry.
Lab book: EC50 of COc1ccc(N(C(=O)CCl)C(C(=O)NCCc2ccccc2)c2cccs2)cc1 (centres undefined) noted as 2.97 µM (inconclusive)
